tested on: PPARg DBDmut:RXRa IVT, anti-PPARg (DBD mutation: PPARg1 K132A/R137A, NR concentration 270 nM, RXRa partner concentration 90 nM); assay: PBM binding z-score (relative to random genomic background probes); higher = stronger binding; sequences stand for … in GC…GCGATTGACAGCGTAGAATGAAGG
If the reported PBM binding z-score equals or exceeds 1, assign satisfied. If not, assign not satisfied.

{"chain": "CAAAGTAGGTCAAGAGGTCAAAGTCCGCTTCCCG", "answer_label": "satisfied"}
{"chain": "CCTACTGGGCCAAGCTCATTGATCAGTCAAAGCA", "answer_label": "not satisfied"}
{"chain": "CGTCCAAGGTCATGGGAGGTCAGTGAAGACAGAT", "answer_label": "not satisfied"}
{"chain": "CGTCTAAGTTCAAGGTAACGTAACAGAAAGCAGC", "answer_label": "not satisfied"}
{"chain": "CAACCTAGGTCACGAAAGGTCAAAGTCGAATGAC", "answer_label": "satisfied"}
{"chain": "ATCGTAAGGTCGTGAGGTGAGTATACAGAAAGGC", "answer_label": "satisfied"}
{"chain": "GATACAGAGTCAGCTAGAGGCCAGAGTATGGAAA", "answer_label": "not satisfied"}
{"chain": "TAGCCTAGGTCATTTGGCCAGTATAGTACGCATC", "answer_label": "not satisfied"}
{"chain": "TCATATAGGTTAAGGTGAAAGTCGAACGATATGA", "answer_label": "satisfied"}
{"chain": "CCTTACGGGTCACTCAAGGTTATAGCATCGGAGT", "answer_label": "satisfied"}
{"chain": "CTCGAAAGGTCGAGCTCAGGTGAGTATACCAAAC", "answer_label": "satisfied"}

The values you see were collected from the supplement of paper PMC6555819.
